This collection of values is drawn from patent US20040071783A1.

test: Particle size analysis using the Aerosizer/Aerodisperser system; format: physicochemical; details: particle size distribution, 15% under
measure: SIZE, 15% UNDER (micron)

Recorded SIZE, 15% UNDER, per entry:
[
  {
    "compound": "CC(C)Cc1ccc(C(C)C(=O)O)cc1 (stereo not shown) [Example 1c, ibuprofen]",
    "resultUnit": "micron",
    "SIZE, 15% UNDER": 5.018
  },
  {
    "compound": "CC(C)Cc1ccc(C(C)C(=O)O)cc1 (stereo not shown) [Example 1b, ibuprofen]",
    "resultUnit": "micron",
    "SIZE, 15% UNDER": 8.631
  }
]

P: CC(C)Cc1ccc(C(C)C(=O)O)cc1 (stereo not shown) [Example 2, ibuprofen]
Q: CC(C)Cc1ccc(C(C)C(=O)O)cc1 (stereo not shown) [Example 1a, ibuprofen]
**Query** Which item exceeds the other in SIZE, 15% UNDER, P or Q ? When you have decided, please share the label of that item.
**Result** Q
(Q: 13.57 micron, P: 8.537 micron)

---

test: Particle size analysis using the Aerosizer/Aerodisperser system; format: physicochemical; details: particle size distribution, 60% under
measure: SIZE, 60% UNDER (micron)

[
  {
    "compound": "CC(C)Cc1ccc(C(C)C(=O)O)cc1 (stereo not shown) [Example 1b, ibuprofen]",
    "measure": "SIZE, 60% UNDER",
    "recordedMeasurement": 17.07
  }
]

a: CC(C)Cc1ccc(C(C)C(=O)O)cc1 (stereo not shown) [Example 1c, ibuprofen]
b: CC(C)Cc1ccc(C(C)C(=O)O)cc1 (stereo not shown) [Example 2, ibuprofen]
c: CC(C)Cc1ccc(C(C)C(=O)O)cc1 (stereo not shown) [Example 1a, ibuprofen]
**Query** Ranking field: SIZE, 60% UNDER; order: falling. Your reply should list the labels following the order given in the request.
**Result** c, b, a
(c: 26.16 micron, b: 17.06 micron, a: 9.849 micron)

---

experiment: Particle size analysis using the Aerosizer/Aerodisperser system; format: physicochemical; conditions: particle size distribution, 95% under
measure: SIZE, 95% UNDER (micron)

Here's what some known entries look like.
[
  {
    "compound": "CC(C)Cc1ccc(C(C)C(=O)O)cc1 (stereo not shown) [Example 1a, ibuprofen]",
    "resultUnit": "micron",
    "SIZE, 95% UNDER": 38.65
  },
  {
    "compound": "CC(C)Cc1ccc(C(C)C(=O)O)cc1 (stereo not shown) [Example 1b, ibuprofen]",
    "resultUnit": "micron",
    "SIZE, 95% UNDER": 25.84
  }
]

A: CC(C)Cc1ccc(C(C)C(=O)O)cc1 (stereo not shown) [Example 2, ibuprofen]
B: CC(C)Cc1ccc(C(C)C(=O)O)cc1 (stereo not shown) [Example 1c, ibuprofen]
**Query** Among A and B , whose measured SIZE, 95% UNDER is the smaller figure? Provide the label of your selected option as the answer.
**Result** B

---

assay: Particle size analysis using the Aerosizer/Aerodisperser system; format: physicochemical; settings: particle size distribution, 65% under
measure: SIZE, 65% UNDER (micron)

[
  {
    "compound": "CC(C)Cc1ccc(C(C)C(=O)O)cc1 (stereo not shown) [Example 2, ibuprofen]",
    "measure": "SIZE, 65% UNDER",
    "recordedMeasurement": 18.06
  }
]

A: CC(C)Cc1ccc(C(C)C(=O)O)cc1 (stereo not shown) [Example 1a, ibuprofen]
B: CC(C)Cc1ccc(C(C)C(=O)O)cc1 (stereo not shown) [Example 1b, ibuprofen]
C: CC(C)Cc1ccc(C(C)C(=O)O)cc1 (stereo not shown) [Example 1c, ibuprofen]
**Query** Arrange the 3 compounds from largest to smallest SIZE, 65% UNDER. To answer, arrange all of the labels according to the requested order.
**Result** A, B, C
